Reported values of kon for individual entries
target.system: T1, PCSK9 (UniProt Q8NBP7 31-692, limits assumed)
T1 construct: Printed only as 'PCSK9' in Embodiments 5.4 and 6; also called Proprotein Convertase Subtilisin/Kexin Type 9; PCSK9 solution
T1 sequence (Q8NBP7 31-692 limits assumed): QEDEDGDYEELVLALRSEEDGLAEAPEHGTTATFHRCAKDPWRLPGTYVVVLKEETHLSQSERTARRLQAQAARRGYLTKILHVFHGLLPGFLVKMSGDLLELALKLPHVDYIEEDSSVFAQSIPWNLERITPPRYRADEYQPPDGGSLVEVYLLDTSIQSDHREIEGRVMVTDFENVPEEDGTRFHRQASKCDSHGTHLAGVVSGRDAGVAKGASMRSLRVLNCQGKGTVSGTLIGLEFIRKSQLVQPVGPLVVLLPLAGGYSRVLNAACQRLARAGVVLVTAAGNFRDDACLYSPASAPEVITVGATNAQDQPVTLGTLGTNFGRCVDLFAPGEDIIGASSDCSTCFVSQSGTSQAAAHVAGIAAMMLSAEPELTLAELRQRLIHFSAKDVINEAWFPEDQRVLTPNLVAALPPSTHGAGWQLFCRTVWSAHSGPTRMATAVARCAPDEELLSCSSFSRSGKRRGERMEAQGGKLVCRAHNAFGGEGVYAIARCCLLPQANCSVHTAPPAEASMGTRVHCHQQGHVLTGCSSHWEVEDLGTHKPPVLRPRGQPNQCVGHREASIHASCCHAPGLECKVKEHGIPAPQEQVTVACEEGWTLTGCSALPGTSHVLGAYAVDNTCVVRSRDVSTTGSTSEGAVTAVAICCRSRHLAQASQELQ
assay.notes: SPR BIAcore X100, antibody captured by goat anti-human IgG on CM5, PCSK9 as analyte
Dear colleague, please return just the value in M⁻¹ s⁻¹, with no unit written.

Past entries and their recorded results:
DFSK9-20 complete antibody (antibody, V domains shown) VH: QVQLVQSGAEVKKPGASVKVSCKASGYSLTSYGISWVRQAPGQGLEWMGWVSFYNGNSNYAQKLQGRGTMTTDPSTSTAYMELRSLRSDDTAVYYCARGFGMDRWGQGTTVTVSS VL: DIQMTQSPSSLSASVGDRVTITCRASQNINNWLNWYQQKPGKAPKLLIYGASTRPTGVPSRFSGSGSGTDFTLTISSLQPEDFATYYCQQWDDTPNTFGQGTKVEIK    925000
DFSK9-1 complete antibody (antibody, V domains shown) VH: QVQLVQSGAEVKRPGASVKVSCKASGGTFTNNAISWVRQAPGQGLEWMGRIIPMFGMANYAQKLQGRGTMTTDPSTSTAYMELRSLRSDDTAVYYCAREGIPMIWGQGTTVTVSS VL: DIQMTQSPSSLSASVGDRVTITCRASQSIDNRLTWYQQKPGKAPKLLIYDASSRQSGVPSRFSGSGSGTDFTLTISSLQPEDFATYYCQQPENDPTTFGQGTKVEIK    518000
DFSK9-19 complete antibody (antibody, V domains shown) VH: QVQLVQSGAEVKKPGASVKVSCKASGYSLTSYGISWVRQAPGQGLEWMGWVTFYNGNTNYAQKLQGRGTMTTDPSTSTAYMELRSLRSDDTAVYYCARGFGLSVWGQGTTVTVSS VL: DIQMTQSPSSLSASVGDRVTITCRASQNVNNWLNWYQQKPGKAPKLLIYAASTRETGVPSRFSGSGSGTDFTLTISSLQPEDFATYYCQQDNDMPLTFGQGTKVEIK    395000
DFSK9-12 complete antibody (antibody, V domains shown) VH: QVQLVQSGAEVKKPGASVKVSCKASGYTVTSYGISWVRQAPGQGLEWMGWLSFYNGNTNYAQKLQGRGTMTTDPSTSTAYMELRSLRSDDTAVYYCARGYSLDVWGQGTTVTVSS VL: DIQMTQSPSSLSASVGDRVTITCRASQSVRNWLDWYQQKPGKAPKLLIYGASTLESGVPSRFSGSGSGTDFTLTISSLQPEDFATYYCQQDNDIPLTFGQGTKVEIK    418000
DFSK9-13 complete antibody (antibody, V domains shown) VH: QVQLVQSGAEVKKPGASVKVSCKASGYSLTSYGISWVRQAPGQGLEWMGWVSFYQGNTNYAQKLQGRGTMTTDPSTSTAYMELRSLRSDDTAVYYCARGYGMTVWGQGTTVTVSS VL: DIQMTQSPSSLSASVGDRVTITCRASQDVDSWLTWYQQKPGKAPKLLIYGASNLASGVPSRFSGSGSGTDFTLTISSLQPEDFATYYCQQDSKIPLTFGQGTKVEIK    575000
DFSK9-15 complete antibody (antibody, V domains shown) VH: QVQLVQSGAEVKKPGASVKVSCKASGYTVTSYGISWVRQAPGQGLEWMGWVSFYNGQTNYAQKLQGRGTMTTDPSTSTAYMELRSLRSDDTAVYYCARGYSLDVWGQGTTVTVSS VL: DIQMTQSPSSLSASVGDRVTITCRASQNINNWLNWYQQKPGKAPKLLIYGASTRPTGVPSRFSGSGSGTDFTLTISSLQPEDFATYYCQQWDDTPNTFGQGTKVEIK    542000

Requested read-out: kon. Entry: DFSK9-18 complete antibody (antibody, V domains shown) VH: QVQLVQSGAEVKKPGASVKVSCKASGYTVTSYGISWVRQAPGQGLEWMGWVSFYNGNSNYAQKLQGRGTMTTDPSTSTAYMELRSLRSDDTAVYYCARGYSLDVWGQGTTVTVSS VL: DIQMTQSPSSLSASVGDRVTITCRASQNINSWLNWYQQKPGKAPKLLIYGASSRQSGVPSRFSGSGSGTDFTLTISSLQPEDFATYYCQQWFDVPTTFGQGTKVEIK
512000

Source of measurements: patent US20210277146A1
